Consider the following compounds and their measured Cp readings.
Test system: Plasma
Experiment: Plasma concentration in Sprague-Dawley rat at 10 mg/kg, po
Format: ADME, organism-based
Parameters: dose 10 mg/kg, route oral
Settings: in vivo

The reported Cp value, Plasma, for CC(=O)NCCn1cc(C#N)c2cc(-c3nc(C)c(C(=O)O)s3)ccc21 reads < 20 ng/mL

Next:
Reported Cp (Plasma) for entry Cc1nc(-c2ccc3c(c2)c(C#N)cn3CCS(C)(=O)=O)sc1C(=O)O is < 20 ng/mL

###

Assay: AUC (0 to last) in Sprague-Dawley rat at 2 mg/kg, iv
Assay type: ADME, organism-based
Set-up: dose 2 mg/kg, route intravenous, time 0 - last
Conditions: plasma
measured_endpoint: AUC(0-t) (ng·h/mL)
Give the quantity in ng·h/mL, number only.

Entry Cc1nc(-c2ccc3c(c2)c(C#N)cn3C(C)C)sc1C(=O)O — recorded AUC(0-t) = 12400

###

Test: Half life in Sprague-Dawley rat at 10 mg/kg, po
Assay type: ADME, organism-based
Parameters: dose 10 mg/kg, route oral
Details: in vivo
measured_endpoint: half-life (h)
Could you give me the number in h? Just the number is fine.

Per the records, this compound ( Cc1nc(-c2ccc3c(c2)c(C#N)cn3C(C)C)sc1C(=O)O ) has half-life equal to 7.95

###

Assay: AUC (0 to last) in Sprague-Dawley rat at 10 mg/kg, po
Assay type: ADME, organism-based
Design: time 0 - last, dose 10 mg/kg, route oral
Details: plasma
measured_endpoint: AUC(0-t) (ng·h/mL)
Report the value in ng·h/mL with no unit label.

Input Cc1nc(-c2ccc3c(c2)c(C#N)cn3C(C)C)sc1C(=O)O . Output AUC(0-t): 47300

Item: Cc1nc(-c2ccc(OCC(C)C)c(C#N)c2)sc1C(=O)O | AUC(0-t): 61500

AUC(0-t) reading for CC(C)n1cc(C#N)c2cc(-c3ncc(C(=O)O)s3)ccc21 : 5390

###

Assay: Tmax in Sprague-Dawley rat at 10 mg/kg, po
Type: ADME, organism-based
Set-up: dose 10 mg/kg, route oral
Settings: in vivo
measured_endpoint: Tmax

The recorded Tmax for Cc1nc(-c2ccc3c(c2)c(C#N)cn3C(C)C)sc1C(=O)O is 6 h

###

Assay: Half life in rat liver microsomes
Type: ADME
Below, each entry is listed with its recorded log10(half-life).
Base-10 log of half-life, unit h.

Solved entries (count: 4):
Entry Cc1nc(-c2ccc3c(c2)c([N+](=O)[O-])cn3C(C)C)sc1C(=O)O ; log10(half-life) = 0.12

For Cc1nc(-c2ccc3c(c2)c(Cl)c(C)n3CC(C)C)sc1C(=O)O the molecule record lists log10(half-life) as -0.96

Lab book: log10(half-life) of Cc1nc(-c2ccc(OCC(C)C)c(C#N)c2)sc1C(=O)O noted as 0.46

// log10(half-life) value for Cc1nc(-c2ccc3c(ccn3CC(C)C)c2)sc1C(=O)O : -0.34

Now take the following molecule into account.
In plain terms, Cc1nc(-c2ccc3c(c2)c(C#N)cn3CC(C)C)sc1C(=O)O has a documented log10(half-life) of 0.25

###

Assay: Inhibition of butter milk Xanthine oxidase using xanthine as substrate preincubated for 3 mins by spectrophotometry
measured_endpoint: pIC50
A value of pIC50 is the negative decimal logarithm of a concentration given in moles per litre.

Noted for Cc1nc(-c2ccc3c(c2)c(C#N)cn3C(C)CF)sc1C(=O)O (centres undefined) : its pIC50 reads 8.31

Quick note, pIC50 for Cc1nc(-c2ccc3c(c2)c(C#N)cn3CCNS(C)(=O)=O)sc1C(=O)O landed at 8.22

Looking up Cc1nc(-c2ccc3c(c2)c(C#N)cn3C(C)C)sc1C(=O)O , I found its pIC50 recorded as 8.46

Record Cc1nc(-c2ccc3c(c2)c([N+](=O)[O-])cn3C(C)C)sc1C(=O)O , field pIC50: 8.38

The molecule CC(C)n1cc(C#N)c2cc(-c3ncc(C(=O)O)s3)ccc21 showed pIC50 equal to 8.36

Next:
Reported pIC50 ( Cc1nc(-c2ccc3c(c2)c(C#N)cn3C(C)CO)sc1C(=O)O (centres undefined) ) = 8.52

Record COc1nc(-c2ccc3c(c2)c(C#N)cn3C(C)C)sc1C(=O)O . Reported pIC50: 7.05

Record summary for Cc1nc(-c2ccc3c(c2)c(Cl)c(C)n3CC(C)C)sc1C(=O)O : reported pIC50 = 7.80

According to the records, this molecule COCCn1cc([N+](=O)[O-])c2cc(-c3nc(C)c(C(=O)O)s3)ccc21 displays pIC50 of 7.92
